# METHOD_NOTES: in vitro
# CONDITION_SUMMARY: human, wild type haploid (HAP1) cells
QUANTITY_KIND: cytotoxicity at 18 h, 10 nM

> print(dat)
                                   molecule  obs.value
1  CC(C)C[C@H](NC(=O)[C@H](Cc1ccccc1)NC(=O)c1cnccn1)B(O)O [bortezomib]      7.56%

---

# METHOD_NOTES: in vitro
# CONDITION_SUMMARY: human, wild type haploid (HAP1) cells
QUANTITY_KIND: cytotoxicity at 12 h, 30 nM (%)

> print(dat)
                                  structure  obs.value
1  CC(C)C[C@H](NC(=O)[C@H](Cc1ccccc1)NC(=O)c1cnccn1)B(O)O       24.9
